- method: physchem
- condition context: buffer solution without triazine compound, pH 6.05, aqueous buffer
measured metric: solubility (µg/mL)
Answer in µg/mL, number only, no unit symbol.

Prompt: Return the recorded solubility value; entry: CC(C)Cn1cnc2c(N)nc3ccccc3c21
Response: 20
